meta.source: ChEMBL document CHEMBL3393033

- ASSAY SUMMARY: Ratio of plasma concentration in po dosed monkey at 8 hrs to EC50 for genotype 1b Hepatitis C virus bicistronic replicon Con1 infected in human Huh7 cells
- Assay type: ADME, organism-based, Huh-7
- CONDITION CONTEXT: in vivo
ASSAY READOUT: Ratio
// no unit, no text: just the number

Looking up COc1cnc2c(c1)c(C#N)c(-c1ccc(S(=O)(=O)N[C@@H](C)C(F)(F)F)cn1)n2C1CCC1 , I see its Ratio listed as 4

Looking up C[C@H](NS(=O)(=O)c1ccc(-c2c(C#N)c3cc(Cl)cnc3n2C2CCCC2)nc1)C(F)(F)F , I see its Ratio listed as 0.3

Looking up Cc1cnc2c(c1)c(C#N)c(-c1ccc(S(=O)(=O)N[C@@H](C)C(F)(F)F)cn1)n2C1CCC1 , I see its Ratio listed as 1

Looking up C[C@H](NS(=O)(=O)c1ccc(-c2c(C#N)c3cc(C(F)(F)F)cnc3n2C2CCC2)nc1)C(F)(F)F , I see its Ratio listed as 105

Looking up C[C@H](NS(=O)(=O)c1ccc(-c2c(C#N)c3cc(Cl)cnc3n2C2CCC2)nc1)C(F)(F)F , I see its Ratio listed as 2
